target: STK25 (human) (UniProt O00506); assay: KINOMEscan competition binding; conditions: compound 10.0 µM
Sequence (O00506 whole entry, looked up): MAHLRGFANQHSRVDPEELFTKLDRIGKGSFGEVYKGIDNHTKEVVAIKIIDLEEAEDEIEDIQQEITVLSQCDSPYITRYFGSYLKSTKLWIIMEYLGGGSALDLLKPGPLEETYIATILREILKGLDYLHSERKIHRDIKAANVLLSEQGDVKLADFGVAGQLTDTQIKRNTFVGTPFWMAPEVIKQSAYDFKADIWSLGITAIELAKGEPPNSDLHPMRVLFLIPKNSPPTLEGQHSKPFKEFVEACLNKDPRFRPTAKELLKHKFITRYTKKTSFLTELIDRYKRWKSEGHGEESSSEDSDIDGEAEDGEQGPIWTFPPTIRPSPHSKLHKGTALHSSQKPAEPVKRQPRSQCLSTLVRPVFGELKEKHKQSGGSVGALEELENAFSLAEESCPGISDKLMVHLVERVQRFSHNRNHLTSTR
Readout: kinase still bound, per cent of control (%)
One number for each entry, in %.

Consider the worked cases shown below.
Compound	Tested on	Unit label	kinase still bound, per cent of control
N#Cc1c(NC(=O)c2cccc3ccccc23)sc2c1CCCC2	STK25 (human) (UniProt O00506)	%	93
COc1cc(C(=O)NC2CCN(C)CC2)ccc1Nc1ncc2c(n1)N(C1CCCC1)C(C)CC(=O)N2C (stereo unspecified)	STK25 (human) (UniProt O00506)	%	100
C=CC(=O)Nc1cccc(Oc2nc(Nc3ccc(N4CCN(C)CC4)cc3OC)ncc2Cl)c1	STK25 (human) (UniProt O00506)	%	100
CCN1CCN(Cc2ccc(Nc3ncc4c(n3)N(C)c3ccccc3C(=O)N4C)cc2C(F)(F)F)CC1	STK25 (human) (UniProt O00506)	%	47
CCCS(=O)(=O)Nc1ccc(F)c(C(=O)c2c[nH]c3ncc(-c4ccc(Cl)cc4)cc23)c1F	STK25 (human) (UniProt O00506)	%	100

Moving on to the next compound.
kinase still bound, per cent of control reading for CC[C@@H]1C(=O)N(C)c2cnc(Nc3ccc(C(=O)NC4CCN(C)CC4)cc3OC)nc2N1C1CCCC1 : 100

---

target: CDK18 (human); test: KINOMEscan competition binding; settings: compound 10.0 µM
Please provide measured kinase still bound, per cent of control for the entries that follow.
// return the numeric value with its unit appended

Sample records with kinase still bound, per cent of control:
Line notation	Observed measurement
C=CC(=O)Nc1cc(NC(=O)c2ccc(C)c(NC(=O)c3ccno3)c2)cc(C(F)(F)F)c1	91%
Cc1ccc(C(=O)Nc2cccc(C(F)(F)F)c2)cc1Nc1cncc(C(N)=O)c1	100%
Cc1ccc2nc(NCCN)c3ncc(C)n3c2c1	100%
Cn1c(=O)n(-c2ccc(C(C)(C)C#N)cc2)c2c3cc(-c4cnc5ccccc5c4)ccc3ncc21	100%

# context switch: different compound, same kinase still bound, per cent of control
Summary for this compound, C=CC(=O)Nc1cccc(Oc2nc(Nc3ccc(N4CCN(C)CC4)cc3OC)ncc2Cl)c1 : kinase still bound, per cent of control is 100%

---

biological target: FYN (human) (UniProt P06241); assay: KINOMEscan competition binding; conditions: compound 10.0 µM
Sequence (P06241 whole entry, looked up): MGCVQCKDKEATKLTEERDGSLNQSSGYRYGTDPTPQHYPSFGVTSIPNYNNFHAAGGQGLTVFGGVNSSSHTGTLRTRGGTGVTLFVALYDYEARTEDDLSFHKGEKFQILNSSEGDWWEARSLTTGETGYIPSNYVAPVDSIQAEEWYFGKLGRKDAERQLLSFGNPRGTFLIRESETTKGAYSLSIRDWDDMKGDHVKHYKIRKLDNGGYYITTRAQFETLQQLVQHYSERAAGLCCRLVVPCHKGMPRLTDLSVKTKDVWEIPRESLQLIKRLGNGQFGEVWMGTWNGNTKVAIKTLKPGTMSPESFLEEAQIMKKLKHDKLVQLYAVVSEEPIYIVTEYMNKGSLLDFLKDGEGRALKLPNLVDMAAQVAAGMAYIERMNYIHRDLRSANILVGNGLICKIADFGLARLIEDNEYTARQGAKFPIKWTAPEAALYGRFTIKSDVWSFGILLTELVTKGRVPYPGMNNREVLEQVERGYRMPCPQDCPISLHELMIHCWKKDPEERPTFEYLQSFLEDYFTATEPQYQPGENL
For each record, write down the corresponding kinase still bound, per cent of control.

Take a look at these entries with their results.
Line notation	kinase still bound, per cent of control
Cc1cc([C@@H](C)Nc2ccccc2C(=O)O)c2nc(N3CCOCC3)cc(=O)n2c1	100%
COc1cc(N2CCN(C)CC2)ccc1Nc1nc(N)c(C(=O)c2c(Cl)cccc2Cl)s1	89%
COc1cc(C(=O)NC2CCN(C)CC2)ccc1Nc1ncc2c(n1)N(C1CCCC1)CCC(=O)N2C(C)C	100%

Kindly give each listed record's kinase still bound, per cent of control.
1. CN(C)C/C=C/C(=O)Nc1cccc(Nc2ncc3c(n2)N(C)c2ccccc2C(=O)N3C)c1
2. O=C(NOC[C@H](O)CO)c1ccc(F)c(F)c1Nc1ccc(I)cc1F
3. OCCCNc1cc(-c2ccnc(Nc3cccc(Cl)c3)n2)ccn1

[reply]
1. 6.7%
2. 64%
3. 100%

---

target: TTK (human) (UniProt P33981); experiment: KINOMEscan competition binding; conditions: compound 10.0 µM
Sequence (P33981 whole entry, looked up): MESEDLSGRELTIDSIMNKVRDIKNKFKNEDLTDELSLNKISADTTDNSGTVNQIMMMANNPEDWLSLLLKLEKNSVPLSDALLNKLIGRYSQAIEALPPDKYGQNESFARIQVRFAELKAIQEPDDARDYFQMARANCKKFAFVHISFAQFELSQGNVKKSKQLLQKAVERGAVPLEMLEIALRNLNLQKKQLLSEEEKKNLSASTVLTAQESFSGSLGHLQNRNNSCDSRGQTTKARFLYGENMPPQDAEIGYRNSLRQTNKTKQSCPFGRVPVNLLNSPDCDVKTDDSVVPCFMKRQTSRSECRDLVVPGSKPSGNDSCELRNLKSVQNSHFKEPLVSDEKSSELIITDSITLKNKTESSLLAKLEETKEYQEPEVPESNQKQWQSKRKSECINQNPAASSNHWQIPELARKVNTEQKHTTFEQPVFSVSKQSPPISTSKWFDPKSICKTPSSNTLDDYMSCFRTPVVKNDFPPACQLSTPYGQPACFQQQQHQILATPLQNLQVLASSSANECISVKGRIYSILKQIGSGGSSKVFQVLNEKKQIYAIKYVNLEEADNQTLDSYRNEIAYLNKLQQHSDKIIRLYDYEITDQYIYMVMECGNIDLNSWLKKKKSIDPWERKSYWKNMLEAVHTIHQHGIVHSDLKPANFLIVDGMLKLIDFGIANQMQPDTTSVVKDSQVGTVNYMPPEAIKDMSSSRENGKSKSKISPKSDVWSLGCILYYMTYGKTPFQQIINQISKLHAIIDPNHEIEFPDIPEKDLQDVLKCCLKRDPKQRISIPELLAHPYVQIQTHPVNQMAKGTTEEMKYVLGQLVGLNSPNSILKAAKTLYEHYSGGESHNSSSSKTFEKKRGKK
Readout: kinase still bound, per cent of control (%)
Answers are plain numbers, in %.

Illustrative cases are given below, each with its answer.
Compound	kinase still bound, per cent of control (%)
O=C1Nc2ccc(I)cc2/C1=C/c1cc(Br)c(O)c(Br)c1	17
CCN1CCN(Cc2ccc(Nc3ncc4c(n3)N(C)c3ccccc3C(=O)N4C)cc2C(F)(F)F)CC1	77
O=C(NC1CC1)c1cccc(-c2ccc3c(NC(=O)C4CC4)n[nH]c3c2)c1	42
CC[C@@H]1C(=O)N(C)c2cnc(Nc3ccc(C(=O)NC4CCN(C)CC4)cc3OC)nc2N1C1CCCC1	6.3
Cn1c(=O)n(-c2ccc(C(C)(C)C#N)cc2)c2c3cc(-c4cnc5ccccc5c4)ccc3ncc21	100

# map each compound to its kinase still bound, per cent of control
1. CCOc1cc2ncc(C#N)c(Nc3ccc(OCc4ccccn4)c(Cl)c3)c2cc1NC(=O)/C=C/CN(C)C
2. COc1cc(C(=O)NC2CCN(C)CC2)ccc1Nc1ncc2c(n1)N(C1CCCC1)C(C)CC(=O)N2C (stereo not given)
3. C[C@@H](Oc1cc(-n2cnc3ccc(CN4CCN(C)CC4)cc32)sc1C(N)=O)c1ccccc1C(F)(F)F
4. Cc1ccc(NC(=O)c2cccc(C(C)(C)C#N)c2)cc1Nc1ccc2ncn(C)c(=O)c2c1
5. CCCS(=O)(=O)Nc1ccc(F)c(C(=O)c2c[nH]c3ncc(-c4ccc(Cl)cc4)cc23)c1F

[reply]
1: 100; 2: 4.6; 3: 95; 4: 95; 5: 57

# batch size: 3; output kinase still bound, per cent of control per entry
1. OCCCNc1cc(-c2ccnc(Nc3cccc(Cl)c3)n2)ccn1
2. Cc1cc([C@@H](C)Nc2ccccc2C(=O)O)c2nc(N3CCOCC3)cc(=O)n2c1
3. C=CC(=O)Nc1cc(NC(=O)c2ccc(C)c(NC(=O)c3ccno3)c2)cc(C(F)(F)F)c1

[reply]
[100, 100, 77]

Give one value of kinase still bound, per cent of control per listed compound.
1. CCC(=O)N1CCN(c2ccc(-n3c(=O)ccc4cnc5ccc(-c6cnc7ccccc7c6)cc5c43)cc2C(F)(F)F)CC1
2. Cc1ccc2nc(NCCN)c3ncc(C)n3c2c1
3. N#Cc1c(NC(=O)c2cccc3ccccc23)sc2c1CCCC2
4. C=CC(=O)Nc1cccc(Oc2nc(Nc3ccc(N4CCN(C)CC4)cc3OC)ncc2Cl)c1

[reply]
1: 9.6; 2: 100; 3: 91; 4: 2

Below is a list of compounds. For each, state its recorded kinase still bound, per cent of control.
1. O=C(O)c1ccc(Nc2ncc3c(n2)-c2ccc(Cl)cc2C(c2c(F)cccc2F)=NC3)cc1
2. CN(C)C/C=C/C(=O)Nc1cccc(Nc2ncc3c(n2)N(C)c2ccccc2C(=O)N3C)c1
3. O=C(NOC[C@H](O)CO)c1ccc(F)c(F)c1Nc1ccc(I)cc1F
4. COc1cc(N2CCN(C)CC2)ccc1Nc1nc(N)c(C(=O)c2c(Cl)cccc2Cl)s1
5. COc1cc(C(=O)NC2CCN(C)CC2)ccc1Nc1ncc2c(n1)N(C1CCCC1)CCC(=O)N2C(C)C
6. Nc1ccc(-c2ccc3ncc4ccc(=O)n(-c5cccc(C(F)(F)F)c5)c4c3c2)cn1

[reply]
63
28
100
20
100
42

Could you report kinase still bound, per cent of control for every entry in the following list?
1. C=CC(=O)Nc1cccc(Nc2nc(N[C@H]3CC[C@H](N(C)C)CC3)nc3c2ncn3C(C)C)c1
2. Cc1ccc(C(=O)Nc2cccc(C(F)(F)F)c2)cc1Nc1cncc(C(N)=O)c1

[reply]
51
100
